tested on: DMS-273; test: NCI tumour cell line growth inhibition, 48 h
Calls of active or inactive are those of the source. Rule as the data show it: active = GI50 up to about 1.1 µM and inactive = higher.
# output must be one of active, inactive

Example entries begin here.
CC1(C)N=C(N)N=C(N)N1c1ccc(CCCCc2ccc(S(=O)(=O)F)cc2Cl)c(Cl)c1
active
CCCCCC[N+](C)(C)Cc1ccc(C[N+](C)(C)CCCCCC)cc1
inactive
CC1OC(n2cc(F)c(=O)[nH]c2=O)CCC1O (stereo not given)
inactive
Cc1cc(O)nc(NNC(C#N)c2ccc(O)cc2)n1 (stereo not given)
inactive

Next, consider the following molecule.
Input line: // return assay outcome for C=CNC(=O)NC(=O)CSc1nc(=O)c(-c2ccccc2NC(=O)C(F)(F)F)n[nH]1
Output line: inactive

* * *

system: MDA-N; test: NCI tumour cell line growth inhibition, 48 h
Active and inactive are the calls of the source. No stated cut-off is given here; in the data, active = GI50 up to about 1.1 µM and inactive = higher.
MEASUREMENT_LABEL: GI50

COc1nc(N)c(N=O)c(OCc2ccccc2)n1
5.36 µM (inactive)
COc1ccc(OC)c(NS(=O)(=O)c2ccc3nc(C)n(NS(=O)(=O)c4cc(OC)ccc4OC)c(=O)c3c2)c1
41.7 µM (inactive)
O=C1[C@@H]2[C@@H](CN3CN(c4ccccc4)N=C(c4ccccc4)[C@@]23c2ccccc2)C(=O)N1c1ccccc1
5.19 µM (inactive)
CC1OC(n2cc(F)c(=O)[nH]c2=O)CCC1O (stereo not drawn)
91.2 µM (inactive)
CCCN(CCC)C(=S)N/N=C(/C)c1ccccc1O
9.77 µM (inactive)
CC(=O)N(C)SCC(NC(=O)C(Cc1ccccc1)NC(=O)OCc1ccccc1)C(=O)NC(Cc1ccccc1)C(=O)NC(Cc1cn(C=O)c2ccccc12)C(=O)NC(CCCCNC(=O)OCc1ccccc1)C(=O)NC(C(=O)NC(CSN(C)C(C)=O)C(=O)NO)C(C)OCc1ccccc1 (stereo not drawn)
> 100 µM (inactive)

Input line: Please give the measured GI50 for this molecule: CCOC(=O)C1C2CCC1CC(=NNc1ccc([N+](=O)[O-])cc1[N+](=O)[O-])C2 (stereo not drawn)
Output line: > 50 µM (inactive)

Input line: Please answer likewise for COc1ccc(/C=c2/s/c(=C(\C#N)c3nc4ccccc4[nH]3)n(-c3ccccc3)c2=O)cc1
Output line: 30.8 µM (inactive)

* * *

test system: M14; assay: NCI tumour cell line growth inhibition, 48 h
Active and inactive are the calls of the source. Cut-off read from the data, not from the text of the source: active = GI50 up to about 1.1 µM and inactive = higher.
Choose the fitting class; nothing outside Yes for active, No for inactive is accepted.

O=C(O[C@H](/C=C/c1ccccc1)P1(=O)N(Cc2ccccc2)[C@H]2CCCC[C@@H]2N1Cc1ccccc1)c1ccccc1
No
COc1ccc(C2c3cc4c(cc3OC(N3CCOCC3)C2C)OCO4)cc1OC (stereo not given)
No
CCOC(=O)/C(=C/c1ccc(N(C)C)cc1)N(CC)CC
No

Input line: What call does the record list for Oc1ccc(-c2nc3ccc4ccccc4c3c3c2CCCC3)c(O)c1 ?
Output line: No

Input line: Could you do the same for CCCn1cnc2c(SCC(=O)O)nc(N)nc21 , please?
Output line: No

Input line: And for Cc1cccc(NC(=O)C(=O)C2C(=O)NC(=O)NC2=O)c1C ?
Output line: No

Input line: Same question, CC1=N/C(=C/c2ccc3c(c2)OCO3)C(=O)O1 this time
Output line: No

Input line: Further, for CC(=O)Nc1ccc(C2C(C(=O)Nc3ccccc3C)=C(C)NC(C)=C2C(=O)Nc2ccccc2C)cc1 ?
Output line: No

Input line: Now consider COC(=O)c1c(O)ccc2c1C1(Cc3ccccc3C1=O)C(O)O2 (stereo not given) and answer again.
Output line: No

Input line: Cool, now CCCc1[nH]c(SCCCCCCCCSc2nc(-c3ccc(F)cc3)c(CCC)[nH]2)nc1-c1ccc(F)cc1
Output line: No

Input line: Another compound: CC(=O)N1C2=CCCC2(C)c2ccccc21 (stereo not given)
Output line: No

Input line: Field entry: CCN(CC)CCCNc1[nH]c2ccccc2c2nc3ccc(OC)cc3c1-2
Output line: No

Input line: Moving on to the next compound: CCC1C(=O)C[C@H]2[C@@H]3C(O)CC4=CC(=O)CC[C@]4(C)[C@H]3CC[C@]12C (stereo not given in full)
Output line: No

Input line: Continue with CCCCCCOP(=O)(OCCCCCC)C(NC(=O)OCC)(C(F)(F)F)C(F)(F)F
Output line: No

Input line: Also NC(=O)c1[nH]nc(C2OC(CO)C(O)C2O)c1O (stereo not given) ?
Output line: No

Input line: Try Cc1cccc(NC(=S)N/N=C2\C(=O)Nc3ccccc32)c1 next.
Output line: No

Input line: CCCN(CCC)C(=S)N/N=C(/C)c1ccccc1O , same question.
Output line: No

Input line: Thanks! And NCCCCNCCCNC(=O)c1nc(-c2nc(CCN)sc2Cl)sc1Cl ?
Output line: No

Input line: Can you check O=C(c1cc(Cl)cc(Cl)c1)N1CCN(C(=O)c2cc(Cl)cc(Cl)c2)C1=S next?
Output line: No

Input line: Then C=C(Br)CN(CC(=C)Br)C(C)=O ?
Output line: No

Input line: Quick one: O=C(c1c(F)c(F)c(F)c(F)c1F)n1c(=S)n(C(=O)c2c(F)c(F)c(F)c(F)c2F)c2ccccc21
Output line: No
